Would you mind telling me the reported Chromatographic distribution of radioactivity in rat plasma of each entry?
Test: Rat plasma metabolite profiles after single oral 5 mg/kg [14C]DCDQ
Type: in vivo, Sprague-Dawley rats
Details: female, 8 hr, mean n = 3
Marks after values point to notes of the source that are not given here.

Below are worked cases with known answers.
# compound, reported result
measured = [
    ("O=S(=O)(O)N1CCN2CC3=CCC=C3c3cccc(c32)C1 [Metabolite M14, di-dehydro DCDQ sulfamate]", "4.9^d %"),
    ("OC1CN2C[C@@H]3CCC[C@@H]3c3cccc(c32)CN1 (stereo partly drawn) [Metabolite M1, hydroxy DCDQ]", "1.9^d %"),
]

GET /values?readout=Chromatographic distribution of radioactivity in rat plasma&item= OC1[C@@H]2CCC[C@@H]2c2cccc3c2N1CCNC3 (stereo partly drawn) [Metabolite M2, hydroxy DCDQ] 1.5^e %
